src = paper PMC4336329

Listed below: hERG current change (%, negative = inhibition) at 10uM values for each entry.
biological target: human ether-à-go-go-related gene (hERG) potassium channel (human, UniProt Q12809); assay: primary screen, population patch clamp on CHO cells stably expressing hERG; higher = less effect of the substance;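 further: peak tail current of the secondary pulse compared with the same well before compound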
Sequence (Q12809 whole entry, looked up): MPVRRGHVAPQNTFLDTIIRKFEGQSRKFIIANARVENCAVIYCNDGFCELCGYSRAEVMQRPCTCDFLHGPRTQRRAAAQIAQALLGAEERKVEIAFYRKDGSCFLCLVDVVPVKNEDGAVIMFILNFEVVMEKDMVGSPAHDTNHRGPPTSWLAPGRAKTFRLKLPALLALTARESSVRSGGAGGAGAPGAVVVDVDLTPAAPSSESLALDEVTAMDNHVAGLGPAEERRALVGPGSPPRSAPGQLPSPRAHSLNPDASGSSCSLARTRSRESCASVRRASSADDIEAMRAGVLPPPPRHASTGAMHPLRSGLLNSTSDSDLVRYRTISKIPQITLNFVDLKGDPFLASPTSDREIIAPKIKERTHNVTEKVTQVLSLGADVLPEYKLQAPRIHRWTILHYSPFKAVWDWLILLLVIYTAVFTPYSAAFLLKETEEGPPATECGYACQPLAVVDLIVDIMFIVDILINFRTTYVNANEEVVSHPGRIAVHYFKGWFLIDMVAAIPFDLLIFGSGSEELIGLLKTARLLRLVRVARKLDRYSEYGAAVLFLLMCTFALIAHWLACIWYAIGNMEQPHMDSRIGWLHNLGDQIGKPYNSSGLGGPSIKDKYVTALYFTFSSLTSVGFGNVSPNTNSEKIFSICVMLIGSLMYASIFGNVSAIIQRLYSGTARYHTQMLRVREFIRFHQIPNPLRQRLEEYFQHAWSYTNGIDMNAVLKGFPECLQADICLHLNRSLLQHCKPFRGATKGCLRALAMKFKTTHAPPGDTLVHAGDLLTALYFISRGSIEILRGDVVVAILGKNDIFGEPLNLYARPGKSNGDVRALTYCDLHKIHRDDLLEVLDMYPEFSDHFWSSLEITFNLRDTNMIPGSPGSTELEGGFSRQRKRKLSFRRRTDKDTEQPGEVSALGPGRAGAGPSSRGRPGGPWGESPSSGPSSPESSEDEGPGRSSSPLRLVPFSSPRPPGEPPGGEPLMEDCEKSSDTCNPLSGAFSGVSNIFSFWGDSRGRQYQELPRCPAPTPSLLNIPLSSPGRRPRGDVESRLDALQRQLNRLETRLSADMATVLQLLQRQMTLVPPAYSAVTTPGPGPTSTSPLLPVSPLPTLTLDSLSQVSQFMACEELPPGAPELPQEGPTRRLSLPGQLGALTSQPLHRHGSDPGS
Among all 310,000 compounds or so, about 14,000 (4.5%) showed an effect of 50% or more. The effect is printed as a negative number. Shown is part of a subset that was picked to be rich in strong results.
Response body: numeric value in %, unit text excluded.

# COMPOUND, REPORTED_RESULT
data = [
    ("COc1ccccc1NC(=O)N(CCN1CCCC1)Cc1cc2cc(C)ccc2[nH]c1=O", -64.8),
    ("COc1ccc2[nH]c(=O)c(CN(CCN3CCCC3)C(=O)Nc3ccccc3Cl)cc2c1", -47.6),
    ("COc1ccc(NC(=O)c2cc3c(s2)CCC(C)C3)cc1S(=O)(=O)N1CCOCC1 (stereo not shown)", -19.1),
    ("COc1ccc(S(=O)(=O)NCC2CCCN(Cc3ccc(OC)cc3F)C2)cc1 (stereo not shown)", -42),
    ("Cl.OCCN1CCN(CC(O)COc2ccc(-c3ccccc3)cc2)CC1 (stereo not shown)", -45.9),
    ("CC1CCCN(CC(O)COc2ccc(-c3ccccc3)cc2)C1 (stereo not shown)", -73.4),
    ("CCOC(=O)CSc1nnc(NC(=O)c2cc([N+](=O)[O-])cc([N+](=O)[O-])c2)s1", -8.83),
    ("Cc1cc(N2CCC(C(=O)NC3CC3)CC2)nc(-c2ccccc2)n1", -46),
]

For the compound COc1cc2cc(CN(CCN3CCCC3)C(=O)Nc3ccccc3Cl)c(=O)[nH]c2cc1OC , give its measured hERG current change (%, negative = inhibition) at 10uM value.
-6.16

---

target: human ether-à-go-go-related gene (hERG) potassium channel (human); assay: primary screen, population patch clamp on CHO cells stably expressing hERG; higher = less effect of the substance;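 further: peak tail current of the secondary pulse compared with the same well before compound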
The whole screen tested about 310,000 compounds, of which about 14,000 (4.5%) showed an effect of 50% or more. The effect is printed as a negative number. The entries come from a sample that favours strong results as a whole.
REPORTED_PROPERTY: hERG current change (%, negative = inhibition) at 10uM (%)
Response body: numeric value in %, unit text excluded.

# COMPOUND, UNIT_ANNOTATION, REPORTED_RESULT
data = [
    ("CCOC(=O)C1CCN(Cc2ccc(OCc3ccccc3)cc2)CC1.O=C(O)C(=O)O", "%", -62),
    ("CCn1c(=O)c(C(=O)CN2CCN(Cc3ccc4c(c3)OCO4)CC2)c(N)n(Cc2ccccc2)c1=O", "%", -72),
    ("CC(C)CCNC(=O)C1CCN(Cc2cccc(OCc3ccccc3)c2)CC1.O=C(O)C(=O)O", "%", -50.8),
    ("NC(=O)C1CCN(Cc2cccc(OCc3ccccc3)c2)CC1.O=C(O)C(=O)O", "%", -12),
    ("O=C1c2oc3ccc(Br)cc3c(=O)c2C(c2cccc(F)c2)N1CCO (stereo not shown)", "%", -1.34),
    ("Cn1c(=O)c(C(=O)CN2CCOCC2)c(N)n(Cc2ccccc2)c1=O", "%", -13.2),
    ("COc1ccc(/C=N\\NC(=O)c2cc(O)c(O)c(O)c2)cc1CN1CCN(c2ccc(F)cc2)CC1", "%", 14.6),
    ("Cc1cc(C)c2nc(C(F)(F)F)c(C#N)c(N)c2c1", "%", 17.4),
]

For the compound COc1ccc(/C=N/NC(=O)c2ccccc2O)cc1CN1CCOCC1 , give its measured hERG current change (%, negative = inhibition) at 10uM value.
-12.8

For the compound COc1cc(C(=O)N/N=C/c2ccc(OC)c(CN3CCN(c4ccc(F)cc4)CC3)c2)ccc1O , give its measured hERG current change (%, negative = inhibition) at 10uM value.
-75.3
